B1: PTPN9 (parent)
chain: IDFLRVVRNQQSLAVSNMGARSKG

# Variants of: B1
# measurement description: protein stability index of a GFP-peptide fusion (GPS, HEK-293T) (PSI 1-6); higher = more stable;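 further: lentivirally expressed fusions sorted by FACS into six bins by GFP to DsRed ratio, PSI derived from sequencing read proportions per bin multiplied by bin number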
# applied conditions: c terminus: a fixed tail appended
# Lookup of reported protein stability index keyed by entry
Answer with the value's number alone.

Known protein stability index results, listed for orientation:
D2G ... 2.64
S16E ... 2.64
M18C ... 2.51
G24T ... 2.63
S16P ... 2.54

Request: State its protein stability index for this variant: `V15P`
Response: 2.36

Request: For the variant `A20G` , give its reported protein stability index.
Response: 2.43

Request: Check the records and state protein stability index for `K23S`
Response: 1.68

Request: Identify protein stability index associated with the variant `S22E`
Response: 3.13

Request: Let me know recorded protein stability index for `Q10S` , thanks.
Response: 1.43

Request: Identify the reported protein stability index for the following entry. `V7L`
Response: 1.85

Request: Tell me protein stability index reported for `S12L`
Response: 2.31

Request: Recall and state the measured protein stability index for `S22N` .
Response: 2.57

Request: Supply recorded protein stability index for `R8I` here.
Response: 2.65

Request: // fetch protein stability index given entry `S22A`
Response: 2.2

Request: Give the measured protein stability index for `S22D`
Response: 2.69

Request: For the variant `Q11A` , give its reported protein stability index.
Response: 1.99

Request: Read the entry `F3D` and write its reported protein stability index.
Response: 4.21

Request: Answer with the recorded protein stability index for the variant listed here: `K23N`
Response: 2.02

Request: Quickly give me recorded protein stability index for `I1G`
Response: 3.72

Request: Query protein stability index for `Q10H`
Response: 2.49

Request: Assign protein stability index to the following record: `S22P`
Response: 2.4

Data origin: the supplement of paper PMC10567573
